assay.system: Human immunodeficiency virus type 1 protease (Human immunodeficiency virus 1)
Some compounds, each annotated with its measured IC50.
Could you give me the number in µM? Just the number is fine.

Endpoint output: IC50 of CCC(C)[C@H](NC(=O)[C@@H]1CCCN1P(=O)(OC)C(Cc1ccccc1)NC(=O)[C@H](CC(N)=O)NC(=O)OC(C)(C)C)C(=O)NCC(C)C (single isomer, unassigned) . Value?
43.2

Endpoint output: IC50 of CCC(C)[C@H](NC(=O)[C@@H]1CCCN1P(=O)(OC)[C@H](Cc1ccccc1)NC(=O)[C@H](CC(N)=O)NC(=O)OC(C)(C)C)C(=O)NCC(C)C (single isomer, unassigned; 2a) . Value?
141

----------
assay.system: Human immunodeficiency virus type 1 protease (Human immunodeficiency virus 1, UniProt Q72874)
experiment.description: Inhibitory concentration against HIV-1 Protease at pH 5.6 and at 37 degrees C
Some compounds, each annotated with its measured IC50.
Could you give me the number in µM? Just the number is fine.

Known IC50 results, listed for orientation:
[[record]]
compound = "CCC(C)[C@H](NC(=O)[C@@H]1CCCN1P(=O)(OC)[C@H](Cc1ccccc1)NC(=O)[C@H](CC(N)=O)NC(=O)OC(C)(C)C)C(=O)NCC(C)C (single isomer, unassigned; 2d)"
numeric_readout = 134

[[record]]
compound = "CCC(C)[C@H](NC(=O)[C@@H]1CCCN1P(=O)(O)C(Cc1ccccc1)NC(=O)[C@H](CC(N)=O)NC(=O)OC(C)(C)C)C(=O)NCC(C)C (stereo partly drawn)"
numeric_readout = 118


Endpoint output: IC50 of CCC(C)[C@H](NC(=O)[C@@H]1CCCN1P(=O)(OC)[C@@H](Cc1ccccc1)NC(=O)[C@H](CC(N)=O)NC(=O)OC(C)(C)C)C(=O)NCC(C)C (single isomer, unassigned) . Value?
576
